run_description: Shh-driven Gli reporter inhibition – luminescence, Shh-LIGHT2 cells, Gli-luciferase, primary screen (AID 2313);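 also: pathway switched on by Shh-conditioned medium diluted 1 in 25 in low serum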
experimental_context: 30 h, hits give high values
The campaign covered roughly 22,000 compounds. About 460 (2.1%) were called active. About 2% were inconclusive and are not listed. Only a selection was taken, and actives are over-represented in it overall.
readout_type: inhibition (%)
The reply should be a number in %, with the unit left off.

Recorded inhibition, per entry:
{"compound": "C[C@@H]1CN([C@H](C)CO)C(=O)c2cccc(NS(=O)(=O)c3ccc(Cl)cc3)c2O[C@@H]1CN(C)Cc1ccc(Oc2ccccc2)cc1", "readout_units": "%", "inhibition": 23.8}
{"compound": "C[C@H](CO)N1C[C@H](C)[C@H](CN(C)S(=O)(=O)c2ccccc2)Oc2c(NC(=O)Nc3ccccc3)cccc2C1=O", "readout_units": "%", "inhibition": 14.8}

Problem: So what does the record say about inhibition for "O=C(CSc1nnc2n1CCCN2)c1ccccc1" ?
Result: -28.2

Problem: Endpoint output: inhibition of CCCC(=O)Nc1ncnc2c1ncn2C1O[C@@H]2COP(=O)(O)O[C@H]2[C@H]1OC(=O)CCC (some centres not stated) . Value?
Result: -62.8

Problem: Consider the compound "Cc1noc(C)c1NC(=O)Nc1ccc2c(c1)C(=O)N([C@H](C)CO)C[C@H](C)[C@H](CN(C)Cc1ccncc1)OCCCC[C@@H](C)O2" and give its measured inhibition.
Result: 0.0543

Problem: Item under review: "COc1ccc(NC(=O)Nc2ccc3c(c2)CC(=O)N([C@H](C)CO)C[C@H](C)[C@H](CN(C)Cc2ccncc2)O3)cc1" . Reported inhibition?
Result: 32.2

Problem: Which inhibition reading was recorded for the compound "Cc1ccc(S(=O)(=O)Nc2cccc3c2O[C@H](CN(C)S(=O)(=O)c2cn(C)cn2)[C@H](C)CN([C@H](C)CO)C3=O)cc1" ?
Result: 21.4

---

run_description: Shh-driven Gli reporter inhibition – luminescence, Shh-LIGHT2 cells, Gli-luciferase, primary screen (AID 2313);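 also: pathway switched on by Shh-conditioned medium diluted 1 in 25 in low serum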
experimental_context: 30 h, hits give high values
Screen size: about 22,000 compounds; about 460 (2.1%) were called active. Another 2% or so got no clear call; they are omitted. The full list was thinned out, with actives kept by preference.
Entries and their measured inhibition follow.

Problem: Param item = "COc1ccc(CCN=C2SCC(=O)N2Cc2ccccc2)cc1OC" ; retrieve measured inhibition.
Result: 13.3% (inactive)

Problem: Can you look up the measured inhibition of "Cc1ccc(S(=O)(=O)Nc2ccc3c(c2)C(=O)N([C@H](C)CO)C[C@H](C)[C@@H](CN(C)S(=O)(=O)c2cccs2)O3)cc1" for me?
Result: -5.89% (inactive)

Problem: Which inhibition value is on record for "C[C@@H]1CN([C@H](C)CO)C(=O)c2cccc(NC(=O)Nc3cccc4ccccc34)c2O[C@@H]1CN(C)Cc1ccccc1" ?
Result: 0.787% (inactive)

Problem: // inhibition lookup, key: "C[C@@H]1CN([C@@H](C)CO)C(=O)c2cccc(NC(=O)NC3CCCCC3)c2O[C@@H]1CN(C)CC1CCCCC1"
Result: -35.3% (inactive)

Problem: // lookup inhibition for "CCOC(=O)c1cc2ccccc2nc1C"
Result: -33.8% (inactive)

---

inhibition values, listed per item
run_description: Shh-driven Gli reporter inhibition – luminescence, Shh-LIGHT2 cells, Gli-luciferase, primary screen (AID 2313);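 also: pathway switched on by Shh-conditioned medium diluted 1 in 25 in low serum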
experimental_context: 30 h, hits give high values
Out of some 22,000 compounds screened, about 460 (2.1%) were called active. Roughly 2% stayed inconclusive and do not appear here. Many of the other results were omitted from the sample, so actives are more common in it than they were.
Dear colleague, please return just the value in %, with no unit written.

The following compounds have reported results that may help.
{"molecular_string": "COc1ccc(NC(=O)N(C)C[C@@H]2Oc3c(NC(=O)Nc4cccc5ccccc45)cccc3C(=O)N([C@@H](C)CO)C[C@H]2C)cc1", "measurement": 3.07}
{"molecular_string": "COc1ccc(S(=O)(=O)N(C)C[C@@H]2OCCCC[C@@H](C)Oc3ccc(NS(C)(=O)=O)cc3C(=O)N([C@H](C)CO)C[C@@H]2C)cc1", "measurement": 54.6}

Problem: Item under review: "C[C@@H]1O[C@@H](O[C@H]2[C@@H](Oc3cc(O)c4c(c3)O[C@H](c3ccc(O)cc3)CC4=O)O[C@H](CO)[C@@H](O)[C@@H]2O)[C@H](O)[C@H](O)[C@H]1O" . Reported inhibition?
Result: -8.61
